Measured solubility (mole fraction) values are reported for all entries that follow.
- recorded_conditions: in 1,4-dioxane, 288.15 K
Answer using only a numeral; do not append any unit.

{"chemical_structure": "O=C1OC(=O)c2c(Cl)cccc21", "measured_attribute": "solubility (mole fraction)", "value": 0.226}

Turning to the following compound.
stdin: Which solubility (mole fraction) is reported for this compound? "O=C1OC(=O)c2cc(Cl)ccc21"
stdout: 0.0992

----------
- recorded_conditions: in acetone, 303.15 K
measured_attribute: solubility (mole fraction)
I only need the number, thanks.

{"chemical_structure": "O=C1OC(=O)c2c(Cl)cccc21", "measured_attribute": "solubility (mole fraction)", "value": 0.234}

We next turn to a different molecule, shown below.
stdin: Need solubility (mole fraction) of "O=C1OC(=O)c2cc(Cl)ccc21" , thanks.
stdout: 0.316

----------
- recorded_conditions: in 1,4-dioxane, 293.15 K
measured_attribute: solubility (mole fraction)

{"chemical_structure": "O=C1OC(=O)c2cc(Cl)ccc21", "value": 0.124}

// next item, solubility (mole fraction) requested
stdin: Sample "O=C1OC(=O)c2c(Cl)cccc21" — what was its solubility (mole fraction)?
stdout: 0.268

----------
- recorded_conditions: in 1,4-dioxane, 323.15 K
measured_attribute: solubility (mole fraction)
Lab note: record the figure alone, no unit after it.

{"chemical_structure": "O=C1OC(=O)c2cc(Cl)ccc21", "solubility (mole fraction)": 0.359}

stdin: Param item = "O=C1OC(=O)c2c(Cl)cccc21" ; retrieve measured solubility (mole fraction).
stdout: 0.439

----------
- recorded_conditions: in water, 293.15 K
Documented solubility (mole fraction) across a set of molecules
Lab note: record just the number, no unit beside it.

{"chemical_structure": "O=C(O)c1cccc(Cl)c1C(=O)O", "value": 0.00248}

Now consider the entry below.
stdin: # get_value(readout='solubility (mole fraction)', item= "O=C(O)c1ccc(Cl)cc1C(=O)O" )
stdout: 0.109

----------
- recorded_conditions: in acetone, 318.15 K
Property: solubility (mole fraction); scope: individual compounds
Give your answer as a number; write no unit.

stdin: Consider the compound "O=C1OC(=O)c2c(Cl)cccc21" and give its measured solubility (mole fraction).
stdout: 0.32

stdin: What solubility (mole fraction) value was documented for this compound, "O=C1OC(=O)c2cc(Cl)ccc21" ?
stdout: 0.473

----------
Measured solubility (mole fraction) accompanies every entry in the list below.
- recorded_conditions: in ethyl acetate, 293.15 K
Lab note: write the figure by itself, no unit.

{"chemical_structure": "O=C1OC(=O)c2cc(Cl)ccc21", "solubility (mole fraction)": 0.206}

Please examine the following record next.
stdin: Return reported solubility (mole fraction); argument: "O=C1OC(=O)c2c(Cl)cccc21"
stdout: 0.121

----------
- recorded_conditions: in acetone, 293.15 K
Catalogue of compounds with associated solubility (mole fraction)
# output: bare number, no unit

{"chemical_structure": "O=C1OC(=O)c2c(Cl)cccc21", "solubility (mole fraction)": 0.202}

stdin: Given the entry "O=C1OC(=O)c2cc(Cl)ccc21" , report its measured solubility (mole fraction).
stdout: 0.246

----------
Each record here notes measured solubility (mole fraction).
- recorded_conditions: in acetone, 283.15 K
Could you keep your reply to the number by itself?

{"chemical_structure": "O=C1OC(=O)c2cc(Cl)ccc21", "solubility (mole fraction)": 0.201}

Proceeding to the next compound to report its solubility (mole fraction).
stdin: # input compound: "O=C1OC(=O)c2c(Cl)cccc21" ; wanted: its solubility (mole fraction)
stdout: 0.167

The origin of these recorded values is BigSolDB 2.1.
